Biological target: Serine/threonine-protein kinase ATR (Homo sapiens)
Sequence (Q13535 whole entry): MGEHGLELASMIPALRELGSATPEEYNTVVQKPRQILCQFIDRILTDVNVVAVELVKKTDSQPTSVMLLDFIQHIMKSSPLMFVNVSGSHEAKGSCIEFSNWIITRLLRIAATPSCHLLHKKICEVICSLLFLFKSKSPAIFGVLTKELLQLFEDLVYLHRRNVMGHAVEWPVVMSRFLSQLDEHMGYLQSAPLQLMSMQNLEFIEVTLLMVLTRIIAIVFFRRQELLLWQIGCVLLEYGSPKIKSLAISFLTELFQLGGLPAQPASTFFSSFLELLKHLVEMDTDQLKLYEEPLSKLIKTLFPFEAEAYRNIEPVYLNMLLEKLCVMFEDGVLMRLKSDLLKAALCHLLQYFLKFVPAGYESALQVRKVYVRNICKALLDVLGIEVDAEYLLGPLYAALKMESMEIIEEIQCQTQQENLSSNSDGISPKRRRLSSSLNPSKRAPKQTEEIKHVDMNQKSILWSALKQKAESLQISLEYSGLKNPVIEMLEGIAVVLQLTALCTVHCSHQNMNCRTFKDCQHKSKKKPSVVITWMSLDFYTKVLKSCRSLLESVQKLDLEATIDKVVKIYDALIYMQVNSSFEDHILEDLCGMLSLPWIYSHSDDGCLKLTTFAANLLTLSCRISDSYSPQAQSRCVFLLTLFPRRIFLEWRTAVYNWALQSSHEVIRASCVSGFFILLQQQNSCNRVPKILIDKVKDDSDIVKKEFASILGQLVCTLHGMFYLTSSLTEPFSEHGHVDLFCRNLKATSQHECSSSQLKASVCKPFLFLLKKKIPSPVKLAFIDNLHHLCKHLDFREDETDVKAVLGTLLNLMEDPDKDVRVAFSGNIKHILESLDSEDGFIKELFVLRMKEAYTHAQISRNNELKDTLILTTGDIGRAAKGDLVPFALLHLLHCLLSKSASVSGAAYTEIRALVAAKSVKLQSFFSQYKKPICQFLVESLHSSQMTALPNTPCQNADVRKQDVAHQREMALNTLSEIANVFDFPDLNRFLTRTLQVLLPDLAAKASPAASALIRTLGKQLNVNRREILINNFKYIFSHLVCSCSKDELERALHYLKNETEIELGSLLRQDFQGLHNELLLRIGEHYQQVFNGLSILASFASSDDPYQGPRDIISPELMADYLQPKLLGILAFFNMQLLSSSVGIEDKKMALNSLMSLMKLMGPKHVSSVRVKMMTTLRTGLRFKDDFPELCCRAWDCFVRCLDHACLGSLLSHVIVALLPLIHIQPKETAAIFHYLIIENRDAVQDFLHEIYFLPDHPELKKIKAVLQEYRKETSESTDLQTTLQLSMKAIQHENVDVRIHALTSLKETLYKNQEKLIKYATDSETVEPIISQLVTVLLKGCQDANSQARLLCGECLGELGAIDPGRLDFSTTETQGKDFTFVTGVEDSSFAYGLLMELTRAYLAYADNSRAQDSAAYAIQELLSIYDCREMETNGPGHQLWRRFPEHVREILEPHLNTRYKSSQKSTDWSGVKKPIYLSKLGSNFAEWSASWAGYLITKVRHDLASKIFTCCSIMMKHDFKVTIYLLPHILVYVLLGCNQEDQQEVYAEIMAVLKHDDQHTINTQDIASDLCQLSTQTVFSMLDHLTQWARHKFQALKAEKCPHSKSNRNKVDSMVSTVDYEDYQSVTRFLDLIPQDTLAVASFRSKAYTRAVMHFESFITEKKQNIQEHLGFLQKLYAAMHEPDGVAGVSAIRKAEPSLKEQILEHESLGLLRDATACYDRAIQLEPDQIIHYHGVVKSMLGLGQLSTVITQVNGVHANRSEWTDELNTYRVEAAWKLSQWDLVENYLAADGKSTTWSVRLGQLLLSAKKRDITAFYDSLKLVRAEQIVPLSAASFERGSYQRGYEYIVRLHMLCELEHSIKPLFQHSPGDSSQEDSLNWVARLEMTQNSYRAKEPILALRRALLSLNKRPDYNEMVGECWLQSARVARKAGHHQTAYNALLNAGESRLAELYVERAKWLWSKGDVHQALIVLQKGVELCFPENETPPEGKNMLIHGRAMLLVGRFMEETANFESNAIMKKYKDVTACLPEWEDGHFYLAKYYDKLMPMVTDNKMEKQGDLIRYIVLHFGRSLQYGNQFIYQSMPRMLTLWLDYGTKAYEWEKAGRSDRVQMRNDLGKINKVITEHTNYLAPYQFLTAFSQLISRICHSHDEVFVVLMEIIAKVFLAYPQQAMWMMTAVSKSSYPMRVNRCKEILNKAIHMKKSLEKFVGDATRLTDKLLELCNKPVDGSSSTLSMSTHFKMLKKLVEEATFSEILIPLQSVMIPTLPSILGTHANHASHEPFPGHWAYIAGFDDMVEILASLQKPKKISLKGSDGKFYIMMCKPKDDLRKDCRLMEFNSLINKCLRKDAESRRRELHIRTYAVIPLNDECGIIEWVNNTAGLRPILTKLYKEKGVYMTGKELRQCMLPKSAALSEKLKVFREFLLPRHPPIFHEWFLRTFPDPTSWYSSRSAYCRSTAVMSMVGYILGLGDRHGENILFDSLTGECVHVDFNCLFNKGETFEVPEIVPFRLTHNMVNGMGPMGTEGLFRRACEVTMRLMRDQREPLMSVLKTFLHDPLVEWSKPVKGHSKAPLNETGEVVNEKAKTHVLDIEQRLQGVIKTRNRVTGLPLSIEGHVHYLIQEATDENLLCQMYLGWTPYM
Test: Inhibition of ATR in human HT-29 cells assessed as reduction in CHK1 phosphorylation incubated for 4 hrs
pIC50: −log10 of the molar value.
quantity_measured: pIC50

O=c1cc(N2CCOCC2)cc(N2CCCC[C@@H]2Cc2ccccc2)[nH]1: 5.10

P: C[C@@H]1CN(c2cc(N3C[C@@H]4C[C@@H]4[C@@H]3Cc3ccccc3)[nH]c(=O)c2)CCO1
Q: C[C@@H]1CCN(c2nc(N3CCOCC3)cc(=O)[nH]2)[C@H]1Cc1ccccc1
I'm curious whether P or Q has the smaller pIC50 number. Which is it? Response format: the label of the selected entry.
P
(P: 4.89, Q: 5.26)
